Value source: patent US20260184708A1

Target: TRPC5 (Homo sapiens, UniProt Q9UL62)
Construct: expressed in transfected cells; host or cells: HEK 293
Sequence (Q9UL62 1-973): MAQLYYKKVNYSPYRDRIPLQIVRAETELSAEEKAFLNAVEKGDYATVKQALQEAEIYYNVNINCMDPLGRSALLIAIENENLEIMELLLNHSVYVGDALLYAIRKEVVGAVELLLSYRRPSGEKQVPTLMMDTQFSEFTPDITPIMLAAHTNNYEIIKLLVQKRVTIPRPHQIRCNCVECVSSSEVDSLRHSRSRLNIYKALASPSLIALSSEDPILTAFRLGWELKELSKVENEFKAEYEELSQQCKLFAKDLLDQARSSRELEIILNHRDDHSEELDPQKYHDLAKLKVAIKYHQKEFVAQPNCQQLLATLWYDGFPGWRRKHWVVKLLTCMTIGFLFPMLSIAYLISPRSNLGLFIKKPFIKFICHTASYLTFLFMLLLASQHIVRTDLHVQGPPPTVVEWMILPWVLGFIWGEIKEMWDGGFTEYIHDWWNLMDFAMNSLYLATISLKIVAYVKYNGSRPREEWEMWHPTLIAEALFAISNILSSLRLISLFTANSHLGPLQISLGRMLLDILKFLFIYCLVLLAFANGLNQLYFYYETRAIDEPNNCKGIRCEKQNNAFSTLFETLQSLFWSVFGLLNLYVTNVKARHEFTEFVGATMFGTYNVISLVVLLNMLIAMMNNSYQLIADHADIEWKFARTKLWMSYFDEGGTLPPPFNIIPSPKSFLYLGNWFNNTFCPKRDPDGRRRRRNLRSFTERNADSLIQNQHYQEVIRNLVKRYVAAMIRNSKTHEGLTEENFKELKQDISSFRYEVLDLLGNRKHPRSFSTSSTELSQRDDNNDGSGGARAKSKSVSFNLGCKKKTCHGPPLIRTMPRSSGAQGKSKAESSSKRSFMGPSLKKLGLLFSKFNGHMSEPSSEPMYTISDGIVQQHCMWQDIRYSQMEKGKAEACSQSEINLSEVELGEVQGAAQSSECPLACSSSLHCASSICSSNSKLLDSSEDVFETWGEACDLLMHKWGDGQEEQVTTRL
Test: TRPC5 automated patch clamp assay (Qpatch), current block after rosiglitazone stimulation
Type: cell-based
Conditions: Table 4; HEK293 cells overexpressing TRPC5; rosiglitazone stimulation; 100 mV; read-out: TRPC5_QP_ XC50_100
Experimental: HEK 293 cells expressing human TRPC5 were harvested, re-suspended in serum free medium, and added to the automated platform and used within 2-3 hours. Internal and external physiological solutions were freshly prepared prior to the assay. […] The automated electrophysiological platform QPatch 16 from Sophion (Denmark) was used to carry out the compounds profiling. The series resistance and quality of seals were continuously monitored during the experiments. […]
pIC50: −log10 of the molar value.
recorded_metric: pIC50

Q: Tell me its pIC50 given O=C1CN(c2cnnc(Br)c2Cl)CCN1Cc1ccc(F)cc1C(F)(F)F as the entry.
Result: 3.30 to 5.00

Q: Tell me its pIC50 given C[C@@H](c1ccccc1)N1CCN(c2cn[nH]c(=O)c2Cl)CC1 as the entry.
Result: 5.30 to 6.00

Q: Tell me its pIC50 given O=C1CN(c2cn[nH]c(=O)c2Cl)CCN1Cc1ccccc1Oc1ccccc1 as the entry.
Result: 5.00 to 5.30

Q: Tell me its pIC50 given O=c1[nH]ncc(N2CCN(C3(c4ccccc4)CC3)CC2)c1Cl as the entry.
Result: 5.00 to 5.30

Q: Tell me its pIC50 given COCCOc1c(N2CCN(Cc3ccccc3C)C(=O)C2)cn[nH]c1=O as the entry.
Result: 3.30 to 5.00

Q: Tell me its pIC50 given C=Cc1c(N2CCN(Cc3ccccc3C)C(=O)C2)cn[nH]c1=O as the entry.
Result: 5.30 to 6.00

Q: Tell me its pIC50 given O=c1[nH]ncc(N2CCOC(c3ccccc3)C2)c1Cl (centres unmarked) as the entry.
Result: 3.30 to 5.00

Q: Tell me its pIC50 given Cc1cc(F)ccc1CN1CCN(c2cn[nH]c(=O)c2Cl)CC1=O as the entry.
Result: 5.30 to 6.00

Q: Tell me its pIC50 given Cc1cc(C(F)(F)F)ccc1CN1CCN(c2cn[nH]c(=O)c2Cl)CC1 as the entry.
Result: 3.30 to 5.00

Q: Tell me its pIC50 given C=C(C)c1c(N2CCN(Cc3ccccc3C)C(=O)C2)cn[nH]c1=O as the entry.
Result: 3.30 to 5.00

Q: Tell me its pIC50 given C[C@@H]1CN(Cc2cccc3ccccc23)CCN1c1cn[nH]c(=O)c1Cl as the entry.
Result: 5.00 to 5.30

----------
target: TRPC5 (Homo sapiens); construct: expressed in transfected cells; host or cells: HEK 293; assay: TRPC5 automated patch clamp assay (Qpatch), current block after rosiglitazone stimulation; assay type: cell-based; settings: Table 5; HEK293 cells overexpressing TRPC5; rosiglitazone stimulation; 80 mV; read-out: TRPC5_QP_ XC50_80
For each entry below, report its IC50 value.

Q: Tell me its IC50 given Cc1ccccc1CN1CCN(c2ccn[nH]c2=O)CC1=O as the entry.
Result: 10 to 500 µM

Q: Tell me its IC50 given O=C1N(Cc2ccccc2C(F)(F)F)CCC12CCN(c1cn[nH]c(=O)c1Br)CC2 as the entry.
Result: 10 to 500 µM

Q: Tell me its IC50 given Cc1ccccc1Cn1cnc2c1CN(c1cn[nH]c(=O)c1Cl)CC2 as the entry.
Result: 10 to 500 µM

Q: Tell me its IC50 given O=C1CN(c2cn[nH]c(=O)c2Cl)CCN1Cc1ccc(C2CC2)cc1 as the entry.
Result: 10 to 500 µM

Q: Tell me its IC50 given Cc1n[nH]c(=O)c(Cl)c1N1CCN(Cc2ccccc2C(F)(F)F)C(=O)C1 as the entry.
Result: 5 to 10 µM

Q: Tell me its IC50 given CC[C@H](c1ccccc1)N1CCN(c2cn[nH]c(=O)c2Cl)CC1 as the entry.
Result: 1 to 5 µM

Q: Tell me its IC50 given Cc1n[nH]c(=O)c(N2CCN(Cc3ccc(F)cc3C(F)(F)F)C(=O)C2)c1Cl as the entry.
Result: 10 to 500 µM

Q: Tell me its IC50 given COc1cc(F)ccc1CN1CCN(c2cn[nH]c(=O)c2Cl)CC1=O [drawing 772] as the entry.
Result: 1 to 5 µM

Q: Tell me its IC50 given O=C1CN(c2cn[nH]c(=O)c2Cl)CCN1Cc1ccc(Cl)cc1 as the entry.
Result: 1 to 5 µM

Q: Tell me its IC50 given Cc1n[nH]c(=O)c(N2CCN(Cc3ccccc3C(F)(F)F)C(=O)C2)c1Cl as the entry.
Result: 5 to 10 µM

----------
molecular target: TRPC5 (Homo sapiens); construct: expressed in transfected cells; host or cells: HEK 293; assay: TRPC5 automated patch clamp assay (Qpatch), current block after rosiglitazone stimulation; format: cell-based; settings: Table 4; HEK293 cells overexpressing TRPC5; rosiglitazone stimulation; 80 mV; read-out: TRPC5_QP_ XC50_80
pIC50: −log10 of the molar value.
For each entry below, report its pIC50 value.

Q: Tell me its pIC50 given CN(C)C(=O)CN1CCN(c2cn[nH]c(=O)c2Cl)CC1 [drawing 708] as the entry.
Result: 3.30 to 5.00

Q: Tell me its pIC50 given O=c1[nH]ncc(Cl)c1N1CCN(Cc2ccccc2OC(F)(F)F)CC1 as the entry.
Result: 5.00 to 5.30

Q: Tell me its pIC50 given Cc1ccccc1[C@@H](C)N1CCN(c2cn[nH]c(=O)c2Cl)CC1 as the entry.
Result: 5.30 to 6.00

Q: Tell me its pIC50 given CCN(CC)C(=O)CN1CCN(c2cn[nH]c(=O)c2Cl)CC1 as the entry.
Result: 3.30 to 5.00

Q: Tell me its pIC50 given CCc1c(N2CCN(Cc3ccccc3C)C(=O)C2)cn[nH]c1=O as the entry.
Result: 5.00 to 5.30

Q: Tell me its pIC50 given O=C1CN(c2c(Cl)c(Br)n[nH]c2=O)CCN1Cc1ccccc1C(F)(F)F as the entry.
Result: 5.30 to 6.00

Q: Tell me its pIC50 given C[C@@H](c1ccccc1)N1CCN(c2cn[nH]c(=O)c2Cl)CC1 as the entry.
Result: 5.00 to 5.30

Q: Tell me its pIC50 given CC(C)=Cc1c(N2CCN(Cc3ccccc3C)C(=O)C2)cn[nH]c1=O as the entry.
Result: 3.30 to 5.00

Q: Tell me its pIC50 given C[C@H](c1ccccc1)N1CCN(c2cn[nH]c(=O)c2Cl)CC1 as the entry.
Result: 5.30 to 6.00

Q: Tell me its pIC50 given COCCOc1c(N2CCN(Cc3ccccc3C)C(=O)C2)cn[nH]c1=O as the entry.
Result: 3.30 to 5.00

Q: Tell me its pIC50 given O=c1[nH]ncc(N2CCN(Cc3cccc4[nH]ncc34)CC2)c1Cl as the entry.
Result: 3.30 to 5.00
